- EXPERIMENT: solubility in water
- Assay type: physicochemical
VALUE KIND: solubility

**Q:** Tell me the measured solubility of Cc1cc(CN2CCC(=C3c4ccc(Cl)cc4CCc4cccnc43)CC2)c[n+](C(CC(=O)O)C(=O)[O-])c1 (stereo not shown) , please.
**A:** > 50 mg/mL

====

- MEASUREMENT TARGET: human H1 receptor (Homo sapiens, UniProt P35367)
- Sequence (P35367 whole entry): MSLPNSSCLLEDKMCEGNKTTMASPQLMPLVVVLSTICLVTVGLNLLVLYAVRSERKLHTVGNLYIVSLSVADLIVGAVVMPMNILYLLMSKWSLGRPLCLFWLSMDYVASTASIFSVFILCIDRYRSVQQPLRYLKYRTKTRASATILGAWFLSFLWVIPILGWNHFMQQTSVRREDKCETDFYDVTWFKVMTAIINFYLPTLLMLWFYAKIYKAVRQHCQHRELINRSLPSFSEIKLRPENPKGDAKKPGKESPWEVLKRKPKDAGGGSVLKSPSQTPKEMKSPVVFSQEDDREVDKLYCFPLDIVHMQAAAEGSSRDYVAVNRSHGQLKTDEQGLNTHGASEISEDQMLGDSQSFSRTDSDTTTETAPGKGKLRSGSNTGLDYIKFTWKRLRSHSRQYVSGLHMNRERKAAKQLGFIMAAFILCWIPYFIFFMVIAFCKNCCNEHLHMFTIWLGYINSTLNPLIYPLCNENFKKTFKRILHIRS
- EXPERIMENT: standard H1 binding assay ([3H]-pyrilamine displacement, scintillation counting)
- PROTOCOL CONDITIONS: recombinant HEK-293 derived membranes, [3H]-pyrilamine 1 nM, 22°C, 60 minutes
VALUE KIND: pIC50
In plain terms, pIC50 is the concentration in mol/L turned into minus its base-10 logarithm.

**Q:** Tell me the measured pIC50 of Cc1cc(CN2CCC(=C3c4ccc(Cl)cc4CCc4cccnc43)CC2)c[n+](C(CC(=O)O)C(=O)[O-])c1 (stereo not shown) [Compound II] , please.
**A:** 6.43

Data credit: patent EP2588472B1
